Origin of the recorded values: patent US20180201592A1

In this section, each of the molecules is paired with its reported MIC grade, A. TERREUS 49, YAG media.
- Tested on: A. terreus 49
- TEST METHOD NOTES: Minimum inhibitory concentration, YAG medium
- Assay type: cell-based, Aspergillus terreus
- APPLIED CONDITIONS: banded MIC grade
METRIC: MIC grade, A. TERREUS 49, YAG media

[
  {
    "SMILES RECORD": "NC1=NNC2=C(CCCC2)S1",
    "RESULT": "2 (2: 1-5 mg/L)"
  },
  {
    "SMILES RECORD": "CCCCOCCC1=NN=C(N)SC1",
    "RESULT": "4 (4: <0.2 mg/L)"
  },
  {
    "SMILES RECORD": "CCCCOCCC1=CNN=C(N)S1",
    "RESULT": "2 (2: 1-5 mg/L)"
  },
  {
    "SMILES RECORD": "NC1=NN=C(c2ccc(Cl)c(Cl)c2)CS1",
    "RESULT": "1 (1: ≥5 mg/L)"
  },
  {
    "SMILES RECORD": "N#Cc1ccc(COCCC2=NN=C(N)SC2)cc1",
    "RESULT": "4 (4: <0.2 mg/L)"
  },
  {
    "SMILES RECORD": "NC1=NN=C(CCCCCOc2ccccc2)CS1",
    "RESULT": "4 (4: <0.2 mg/L)"
  }
]

###

- Test system: A. terreus 49
- TEST METHOD NOTES: Minimum inhibitory concentration, YAG medium
- Format: cell-based, Aspergillus terreus
- APPLIED CONDITIONS: banded MIC grade
In this section, each of the compounds is paired with its reported MIC grade, A. TERREUS 49, YAG media.

[
  {
    "COMPOUND": "CC(C)c1ccc(C2=NN=C(N)SC2)cc1",
    "MIC grade, A. TERREUS 49, YAG media": "2 (2: 1-5 mg/L)"
  },
  {
    "COMPOUND": "CCc1cccc(OCCCCCC2=NN=C(N)SC2)c1",
    "MIC grade, A. TERREUS 49, YAG media": "4 (4: <0.2 mg/L)"
  },
  {
    "COMPOUND": "NC1=NN=C(CCOC2CCCCC2)CS1",
    "MIC grade, A. TERREUS 49, YAG media": "2 (2: 1-5 mg/L)"
  },
  {
    "COMPOUND": "NC1=NN=C(CCOc2ccccc2)CS1",
    "MIC grade, A. TERREUS 49, YAG media": "3 (3: 0.2-1 mg/L)"
  },
  {
    "COMPOUND": "COCC1=NN=C(N)SC1",
    "MIC grade, A. TERREUS 49, YAG media": "2 (2: 1-5 mg/L)"
  },
  {
    "COMPOUND": "NC1=NN=C(CCCCCOc2ccc(F)cc2)CS1",
    "MIC grade, A. TERREUS 49, YAG media": "4 (4: <0.2 mg/L)"
  },
  {
    "COMPOUND": "CCCC(C)OCCC1=NN=C(N)SC1 (stereo not shown)",
    "MIC grade, A. TERREUS 49, YAG media": "2 (2: 1-5 mg/L)"
  }
]

###

- System: Aspergillus fumigatus
- TEST METHOD NOTES: Minimum inhibitory concentration, YAG medium
- Assay type: cell-based
- APPLIED CONDITIONS: banded MIC grade
In this section, each of the compounds is paired with its reported MIC grade, A. FUMIGATUS, YAG media.

[
  {
    "COMPOUND": "CCCCCCOCCC1=NN=C(N)SC1",
    "MIC grade, A. FUMIGATUS, YAG media": "4 (4: <0.2 mg/L)"
  },
  {
    "COMPOUND": "COc1ccc(COCCC2=NN=C(N)SC2)cc1",
    "MIC grade, A. FUMIGATUS, YAG media": "3 (3: 0.2-1 mg/L)"
  },
  {
    "COMPOUND": "NC1=NN=C(CCCCOc2ccccc2)CS1",
    "MIC grade, A. FUMIGATUS, YAG media": "3 (3: 0.2-1 mg/L)"
  },
  {
    "COMPOUND": "NC1=NN=C(CCCCOCc2ccc(F)cc2F)CS1",
    "MIC grade, A. FUMIGATUS, YAG media": "4 (4: <0.2 mg/L)"
  },
  {
    "COMPOUND": "CC(C)c1ccc(C2=NN=C(N)SC2)cc1",
    "MIC grade, A. FUMIGATUS, YAG media": "1 (1: ≥5 mg/L)"
  },
  {
    "COMPOUND": "COCCCCC1=NN=C(N)SC1",
    "MIC grade, A. FUMIGATUS, YAG media": "3 (3: 0.2-1 mg/L)"
  },
  {
    "COMPOUND": "COCCOCCC1=NN=C(N)SC1",
    "MIC grade, A. FUMIGATUS, YAG media": "2 (2: 1-5 mg/L)"
  },
  {
    "COMPOUND": "NC1=NN=C(c2ccccn2)CS1",
    "MIC grade, A. FUMIGATUS, YAG media": "1 (1: ≥5 mg/L)"
  },
  {
    "COMPOUND": "NC1=NN=C(CCCCCCOc2ccccc2)CS1",
    "MIC grade, A. FUMIGATUS, YAG media": "4 (4: <0.2 mg/L)"
  },
  {
    "COMPOUND": "CCCc1ccc(C2=NN=C(N)SC2)cc1",
    "MIC grade, A. FUMIGATUS, YAG media": "3 (3: 0.2-1 mg/L)"
  },
  {
    "COMPOUND": "NC1=NN=C(CCCCCOCc2ccccc2)CS1",
    "MIC grade, A. FUMIGATUS, YAG media": "4 (4: <0.2 mg/L)"
  },
  {
    "COMPOUND": "NC1=NN=C(CCCCCCc2ccccc2)CS1",
    "MIC grade, A. FUMIGATUS, YAG media": "4 (4: <0.2 mg/L)"
  },
  {
    "COMPOUND": "NC1=NN=C(CCOCc2ccc(-c3ccccc3)cc2)CS1",
    "MIC grade, A. FUMIGATUS, YAG media": "1 (1: ≥5 mg/L)"
  },
  {
    "COMPOUND": "NC1=NN=C(CCCCCCCOc2ccccc2)CS1",
    "MIC grade, A. FUMIGATUS, YAG media": "4 (4: <0.2 mg/L)"
  },
  {
    "COMPOUND": "Cc1cccc(COCCCCC2=NN=C(N)SC2)c1",
    "MIC grade, A. FUMIGATUS, YAG media": "3 (3: 0.2-1 mg/L)"
  },
  {
    "COMPOUND": "NC1=NN=C(CCCCCOc2ccccn2)CS1",
    "MIC grade, A. FUMIGATUS, YAG media": "4 (4: <0.2 mg/L)"
  },
  {
    "COMPOUND": "CCCCOC1CCC2=NN=C(N)SC2C1 (stereo not drawn)",
    "MIC grade, A. FUMIGATUS, YAG media": "1 (1: ≥5 mg/L)"
  },
  {
    "COMPOUND": "CCCCOc1ccc(C2=NN=C(N)SC2)cc1",
    "MIC grade, A. FUMIGATUS, YAG media": "3 (3: 0.2-1 mg/L)"
  },
  {
    "COMPOUND": "Cc1cccc(C2=NN=C(N)SC2)c1",
    "MIC grade, A. FUMIGATUS, YAG media": "1 (1: ≥5 mg/L)"
  },
  {
    "COMPOUND": "COCCCCCCC1=NN=C(N)SC1",
    "MIC grade, A. FUMIGATUS, YAG media": "4 (4: <0.2 mg/L)"
  },
  {
    "COMPOUND": "NC1=NN=C(CCCOc2ccccc2)CS1",
    "MIC grade, A. FUMIGATUS, YAG media": "4 (4: <0.2 mg/L)"
  },
  {
    "COMPOUND": "NC1=NN=C(CCCCC(=O)Nc2ccccc2)CS1",
    "MIC grade, A. FUMIGATUS, YAG media": "3 (3: 0.2-1 mg/L)"
  },
  {
    "COMPOUND": "NC1=NNC2=C(CCCC2)S1",
    "MIC grade, A. FUMIGATUS, YAG media": "2 (2: 1-5 mg/L)"
  },
  {
    "COMPOUND": "Cc1ccc(OCCC2=NN=C(N)SC2)cc1",
    "MIC grade, A. FUMIGATUS, YAG media": "3 (3: 0.2-1 mg/L)"
  },
  {
    "COMPOUND": "CCOC(=O)c1ccc(C2=CSC(N)=NN2)cc1",
    "MIC grade, A. FUMIGATUS, YAG media": "4 (4: <0.2 mg/L)"
  },
  {
    "COMPOUND": "CCCCOc1cccc(C2=NN=C(N)SC2)c1",
    "MIC grade, A. FUMIGATUS, YAG media": "1 (1: ≥5 mg/L)"
  },
  {
    "COMPOUND": "NC1=NN=C(CCCCCc2ccccn2)CS1",
    "MIC grade, A. FUMIGATUS, YAG media": "3 (3: 0.2-1 mg/L)"
  },
  {
    "COMPOUND": "Cc1ccc(COCCC2=NN=C(N)SC2)cc1",
    "MIC grade, A. FUMIGATUS, YAG media": "4 (4: <0.2 mg/L)"
  },
  {
    "COMPOUND": "NC1=NN=C(CCCCc2cc3ccccc3o2)CS1",
    "MIC grade, A. FUMIGATUS, YAG media": "3 (3: 0.2-1 mg/L)"
  },
  {
    "COMPOUND": "NC1=NN=C(CCOCCCc2ccccc2)CS1",
    "MIC grade, A. FUMIGATUS, YAG media": "4 (4: <0.2 mg/L)"
  }
]
